Reference for the values: ChEMBL document CHEMBL1159253

- protocolText: Toxicity against brine shrimp
- Format: organism-based
- studyConditions: artemia, in vivo
# LC50 per record follows
parameterMeasured: LC50 (µg/mL)

CCCCCCCCCCCC[C@H](O)[C@H]1CC[C@H]([C@H](O)CCC[C@H]2OC(C)(C)O[C@@H]2CCCCC[C@@H](O)CC2=C[C@H](C)OC2=O)O1 0.131
CCCCCCCCCCCC[C@H](O)[C@H]1CC[C@H]([C@H](O)CCC[C@@H]2OC(C)(C)O[C@@H]2CCCCC[C@@H](O)CC2=C[C@H](C)OC2=O)O1 0.18
CCCCCCCCCCCC[C@H](O)[C@H]1CC[C@H]([C@H](O)CCC[C@@H](O)[C@H](O)CCCCC[C@@H](O)CC2=C[C@H](C)OC2=O)O1 0.625
CCCCCCCCCCCC[C@H](O)[C@H]1CC[C@H]([C@H](O)CCC[C@H](O)[C@H](O)CCCCC[C@@H](O)CC2=C[C@H](C)OC2=O)O1 0.687
